Sourced from the supplement of paper PMC9112550

System: Escherichia coli TOP10
Experiment: shrunken log2 fold change of peptide-encoding DNA abundance (4.5 h post-induction vs induction); higher = less antimicrobial activity (less host growth inhibition)
Details: time post-induction: 4.5 h; library: site-saturation at positions 5, 18, 19, 20
Overview of recorded shrunken log2 fold change for various sequences
assay-endpoint: shrunken log2 fold change

INSERT INTO measurements (sequence_chain, assay_endpoint, measured_result) VALUES
  ('RRIRLRPPRLPRPRPRPSMIPRP', 'shrunken log2 fold change', -1.02),
  ('RRIRGRPPRLPRPRPRPMQFPRP', 'shrunken log2 fold change', 0.184),
  ('RRIRLRPPRLPRPRPRPAMGPRP', 'shrunken log2 fold change', 0.248),
  ('RRIRWRPPRLPRPRPRPNVTPRP', 'shrunken log2 fold change', -0.22),
  ('RRIRQRPPRLPRPRPRPRGKPRP', 'shrunken log2 fold change', 0.00142),
  ('RRIRMRPPRLPRPRPRPQQLPRP', 'shrunken log2 fold change', -0.0103),
  ('RRIRDRPPRLPRPRPRPVITPRP', 'shrunken log2 fold change', 0.0916),
  ('RRIRCRPPRLPRPRPRPHNYPRP', 'shrunken log2 fold change', -0.831),
  ('RRIRWRPPRLPRPRPRPNVLPRP', 'shrunken log2 fold change', -0.0626);

* * *

Test system: Escherichia coli TOP10;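 further: peptides expressed intracellularly from a pBAD plasmid library in pooled LB shake-flask culture, induced with 0.3% L-arabinose, DNA abundance read by NGS, three biological replicates, DESeq2 with apeglm shrinkage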
Assay: shrunken log2 fold change of peptide-encoding DNA abundance (4.5 h post-induction vs induction); higher = less antimicrobial activity (less host growth inhibition)
Details: time post-induction: 4.5 h; library: site-saturation at positions 5, 18, 19, 20
assay-endpoint: shrunken log2 fold change

INSERT INTO assay_data (sequence_chain, assay_endpoint, measured_result) VALUES
  ('RRIRSRPPRLPRPRPRPYWGPRP', 'shrunken log2 fold change', -0.0576),
  ('RRIRVRPPRLPRPRPRPRNTPRP', 'shrunken log2 fold change', -0.365),
  ('RRIRPRPPRLPRPRPRPAHLPRP', 'shrunken log2 fold change', 0.317),
  ('RRIRHRPPRLPRPRPRPGVKPRP', 'shrunken log2 fold change', -0.0148),
  ('RRIRGRPPRLPRPRPRPKLSPRP', 'shrunken log2 fold change', -0.0523),
  ('RRIRGRPPRLPRPRPRPDEMPRP', 'shrunken log2 fold change', -0.0376),
  ('RRIRMRPPRLPRPRPRPYDIPRP', 'shrunken log2 fold change', 0.0444),
  ('RRIRDRPPRLPRPRPRPPGEPRP', 'shrunken log2 fold change', -0.0136),
  ('RRIRSRPPRLPRPRPRPLLNPRP', 'shrunken log2 fold change', -0.117),
  ('RRIRIRPPRLPRPRPRPHQVPRP', 'shrunken log2 fold change', -0.614),
  ('RRIRGRPPRLPRPRPRPQIYPRP', 'shrunken log2 fold change', 0.185),
  ('RRIRIRPPRLPRPRPRPWCYPRP', 'shrunken log2 fold change', -0.406),
  ('RRIRRRPPRLPRPRPRPCAMPRP', 'shrunken log2 fold change', -0.0039),
  ('RRIRLRPPRLPRPRPRPYHNPRP', 'shrunken log2 fold change', -0.712),
  ('RRIRRRPPRLPRPRPRPGIQPRP', 'shrunken log2 fold change', 0.0906),
  ('RRIRRRPPRLPRPRPRPESNPRP', 'shrunken log2 fold change', 0.219),
  ('RRIRGRPPRLPRPRPRPYSIPRP', 'shrunken log2 fold change', 0.273),
  ('RRIRYRPPRLPRPRPRPSIHPRP', 'shrunken log2 fold change', -0.722),
  ('RRIRRRPPRLPRPRPRPREDPRP', 'shrunken log2 fold change', 0.811),
  ('RRIRPRPPRLPRPRPRPFHVPRP', 'shrunken log2 fold change', -0.428),
  ('RRIRQRPPRLPRPRPRPILQPRP', 'shrunken log2 fold change', 0.292),
  ('RRIRDRPPRLPRPRPRPIFTPRP', 'shrunken log2 fold change', -0.0502),
  ('RRIRHRPPRLPRPRPRPVGQPRP', 'shrunken log2 fold change', 0.0139),
  ('RRIRGRPPRLPRPRPRPETNPRP', 'shrunken log2 fold change', 1.95),
  ('RRIRERPPRLPRPRPRPRCEPRP', 'shrunken log2 fold change', 0.0736),
  ('RRIRQRPPRLPRPRPRPGCAPRP', 'shrunken log2 fold change', 0.507),
  ('RRIRSRPPRLPRPRPRPNQMPRP', 'shrunken log2 fold change', 0.0306),
  ('RRIRVRPPRLPRPRPRPAPSPRP', 'shrunken log2 fold change', 0.342),
  ('RRIRGRPPRLPRPRPRPRDFPRP', 'shrunken log2 fold change', 0.619),
  ('RRIRERPPRLPRPRPRPDIFPRP', 'shrunken log2 fold change', 0.0405),
  ('RRIRMRPPRLPRPRPRPWYDPRP', 'shrunken log2 fold change', 0.0249),
  ('RRIRFRPPRLPRPRPRPECLPRP', 'shrunken log2 fold change', -0.0562),
  ('RRIRNRPPRLPRPRPRPDNWPRP', 'shrunken log2 fold change', -0.532),
  ('RRIRFRPPRLPRPRPRPLTNPRP', 'shrunken log2 fold change', 0.0389),
  ('RRIRYRPPRLPRPRPRPYIQPRP', 'shrunken log2 fold change', -0.294),
  ('RRIRQRPPRLPRPRPRPWPAPRP', 'shrunken log2 fold change', 0.0128),
  ('RRIRKRPPRLPRPRPRPRNQPRP', 'shrunken log2 fold change', 0.493),
  ('RRIRDRPPRLPRPRPRPDFAPRP', 'shrunken log2 fold change', 0.152),
  ('RRIRIRPPRLPRPRPRPRGKPRP', 'shrunken log2 fold change', 0.086),
  ('RRIRFRPPRLPRPRPRPSYCPRP', 'shrunken log2 fold change', -0.345),
  ('RRIRGRPPRLPRPRPRPKKHPRP', 'shrunken log2 fold change', 0.655),
  ('RRIRCRPPRLPRPRPRPMRWPRP', 'shrunken log2 fold change', 0.325),
  ('RRIRLRPPRLPRPRPRPDKDPRP', 'shrunken log2 fold change', 0.0388),
  ('RRIRDRPPRLPRPRPRPQHFPRP', 'shrunken log2 fold change', -0.422),
  ('RRIRGRPPRLPRPRPRPEERPRP', 'shrunken log2 fold change', 0.55),
  ('RRIRVRPPRLPRPRPRPCPLPRP', 'shrunken log2 fold change', -0.418),
  ('RRIRTRPPRLPRPRPRPRDEPRP', 'shrunken log2 fold change', 0.146),
  ('RRIRSRPPRLPRPRPRPDNQPRP', 'shrunken log2 fold change', -0.568),
  ('RRIRLRPPRLPRPRPRPVIWPRP', 'shrunken log2 fold change', 0.0724),
  ('RRIRVRPPRLPRPRPRPQKKPRP', 'shrunken log2 fold change', -0.117),
  ('RRIRERPPRLPRPRPRPYLQPRP', 'shrunken log2 fold change', -0.138),
  ('RRIRERPPRLPRPRPRPCTAPRP', 'shrunken log2 fold change', -0.337),
  ('RRIRRRPPRLPRPRPRPTEMPRP', 'shrunken log2 fold change', 0.477),
  ('RRIRTRPPRLPRPRPRPYSLPRP', 'shrunken log2 fold change', -0.186),
  ('RRIRYRPPRLPRPRPRPTANPRP', 'shrunken log2 fold change', -0.602),
  ('RRIRCRPPRLPRPRPRPTREPRP', 'shrunken log2 fold change', 0.684),
  ('RRIRSRPPRLPRPRPRPCGKPRP', 'shrunken log2 fold change', 0.027),
  ('RRIRVRPPRLPRPRPRPDEYPRP', 'shrunken log2 fold change', 0.0327),
  ('RRIRQRPPRLPRPRPRPSCKPRP', 'shrunken log2 fold change', -0.259),
  ('RRIRIRPPRLPRPRPRPWGSPRP', 'shrunken log2 fold change', -0.488);
